Task for the reader: assign each of the following compounds its reported normalized growth.
Assay: chemical genetic growth profiling, strain panel (AID 1159580);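 note: tested at 20 µM; growth read once vehicle control cultures reached saturation at 30 °C; 1 = growth at the plate median or of vehicle wells; lower values mean less growth of the strain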
Details: S. cerevisiae deletion strains, growth OD, locus YAL026C, strain drs2, active compounds read low
Out of some 5,500 compounds screened, about 2,000 (36%) were called active. Another 18% or so got no clear call; they are omitted. Some of the results follow.
Output spec: single numeric token, no unit.

Entry CC(CC(=O)C1OC1(C)C)C1C(=O)CC2(C)C3=CCC4C(C)(C)C(OC5OCC(O)C(O)C5O)CCC45CC35C(O)CC12C (stereo not given) needs its normalized growth filled in; supply it. 1.01

For the compound CC1(C)CC[C@@]2(C(=O)O)C(C1)C1=CCC3[C@@]4(C)CC[C@H](O)C(C)(C)C4CC[C@@]3(C)[C@]1(C)C[C@@H]2O (stereo not given in full) , report normalized growth. 1.01

Identify measured normalized growth corresponding to C[C@H]1[C@H](C)CC[C@]2(CO)CC[C@]3(C)C(=CCC4[C@@]5(C)CC[C@H](O)C(C)(C)C5CC[C@]43C)[C@H]12 (stereo not given in full) 0.981

Determine from records and report normalized growth for CC1(C)CCC2(C(=O)O)CCC3(C)C(=CCC4C5(C)CCC(O)C(C)(C)C5C(O)CC43C)C2C1 (stereo not given) 1.04

Quickly give me recorded normalized growth for C/C=C(/C)C(=O)O[C@@H]1[C@H](OC(C)=O)[C@@]2(CO)C(CC1(C)C)C1=CCC3[C@@]4(C)CC[C@H](O[C@@H]5O[C@H](C(=O)O)[C@@H](O[C@@H]6O[C@H](CO)[C@@H](O)[C@H](O)[C@H]6O)[C@H](O)[C@H]5O[C@@H]5O[C@H](CO)[C@@H](O)[C@H](O)[C@H]5O)[C@](C)(CO)C4CC[C@@]3(C)[C@]1(C)C[C@H]2O (stereo not given in full) 0.983
